Data origin: PubChem BioAssay

# Procedure details: reduction of polyQ htt aggregates in cells – imaging, exon1htt(103Q)mCFP cells, high-content imaging, primary screen (AID 483);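 also: compound exposure lasted 3 days before fixation; percent of the per-plate median nuclei count of sample wells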
# Condition context: exon1htt(103Q)mCFP cell line, aggregate imaging, at 2 µM; measured here: cell count, toxicity
Attribute measured: nuclei count (%)
Supply the numeric figure in %, leaving out any unit text.

For record CCCCn1nnnc1NCc1cccs1 the listed nuclei count is 105

The compound listed as O=C(O)c1[nH]c2ccc(Cl)cc2c1CC(=O)N1CCN(C(=O)c2ccco2)CC1 has a reported nuclei count of 99.6

Noted for Cc1ccc(C)c(OCC(O)CN2C(C)CCCC2C)c1 (stereo unspecified) : its nuclei count reads 93.8

So, Nc1nc(-c2ccccc2)cc(C(F)(F)F)n1 ? Its nuclei count was 98.1

Consider O=C(CSc1nnc(-c2ccc(Br)cc2)n1C1CCCCC1)N1CCCC1 . Its measured nuclei count is 101

Entry COc1ccc2nc(NC(=O)CSc3nnc(-c4ccoc4C)n3C)sc2c1 , nuclei count reported as 97.8

According to the records, this compound CCOCCn1c(CN2CCC(Cc3ccccc3)CC2)nc2c1c(=O)n(C)c(=O)n2C displays nuclei count of 84.1

The recorded nuclei count for entry COC(=O)C1=C(C)N(Cc2ccco2)C(=O)C1 equals 99.6

The recorded nuclei count for Cc1cc(NC(=O)CCC(=O)N(CC2CCCO2)C(C(=O)NC2CCCC2)c2ccccc2C)no1 (stereo unspecified) is 63.6

Measured nuclei count, COc1cccc(C2CC(c3ccc(C)cc3)Nc3nc(N)nn32)c1 (stereo unspecified) : 102

Sample COCCNC(=O)CN1CCC(NC(=O)Nc2ccc(C(F)(F)F)cc2)CC1 ; nuclei count observed: 70.9
